Source listed as ChEMBL document CHEMBL1201862.

This document collects GI50 values reported for HCT-15.

Some solved entries appear below for comparison.
COMPOUND	MEASURED_TARGET	GI50
COC(=O)C1C(=O)C(C(=O)OC)C2CCC1N2C (centres undefined)	HCT-15	1.84 µM
CCCCCC(/C=C/[C@@H]1[C@H]2CC(=O)O[C@H]2C[C@H]1N1CCOCC1)OC1CCCO1 (some centres undefined)	HCT-15	> 100 µM
O/N=C1/C(=C/c2ccc(Oc3ccccc3)cc2)CCCC1C(NO)c1ccc(Oc2ccccc2)cc1 (centres undefined)	HCT-15	47 µM
O=C1[C@H]2ON(c3ccccc3)C(c3ccc(Cl)cc3)[C@H]2C(=O)N1c1ccc(Cc2ccc(N3C(=O)[C@@H]4ON(c5ccccc5)C(c5ccc(Cl)cc5)[C@@H]4C3=O)cc2)cc1 (some centres undefined)	HCT-15	> 100 µM
C/C(CC1SCCCS1)=C(/C)CC1SCCCS1	HCT-15	> 100 µM

Please supply GI50 for each of the following items, keeping them in order.
1. CC1=NC2(CCCCC2)N(Cl)C(=O)C1SC#N (centres undefined)
2. CC1(C)OC[C@@H](C[C@H](O)COCc2ccccc2)O1
3. O=C1N=C(Nc2ccccc2Cl)SC1C(=O)Nc1ccc([N+](=O)[O-])cc1[N+](=O)[O-] (centres undefined)
4. O=C(O)c1c[nH]c2c(=O)[nH]cnc12

OUT:
1: 23.8 µM; 2: > 100 µM; 3: > 100 µM; 4: > 100 µM

====

System: MOLT-4
Assay: NCI tumour cell line growth inhibition, 48 h
Calls of active or inactive are those of the source. Cut-off read from the data, not from the text of the source: active = GI50 up to about 1.1 µM and inactive = higher.
Respond using exactly one of the listed classes: active, inactive

# example entries with known answers
MOLECULE	DISCRETE_LABEL
CCOc1ccc(N(CC(=O)N2CC(=O)Nc3cc(C)c(C)cc32)C(C)=O)cc1	inactive
CC1=C(CO)C(=O)O[C@@H]([C@@H](C)[C@H]2CC[C@H]3[C@@H]4C[C@H]5O[C@]56[C@@H](O)C=CC(=O)[C@]6(C)[C@H]4CC[C@]23C)C1	active
C#CCn1c(=O)c2cc(OC)c(OC)cc2n(CC#C)c1=O	inactive
N#CC(/C(CCCC(=O)Nc1cccc([N+](=O)[O-])c1)=N/NC(=O)c1cc2ccccc2cc1O)c1ccccc1 (centres undefined)	inactive
Cn1c(=O)n(CC(Br)CBr)c(=O)n(CC(Br)CBr)c1=O (centres undefined)	inactive
COc1ccc(CC#C/C=C/C(=O)NCC(C)C)cc1	inactive
COc1ccc(C2=NN(C(=O)c3ccc(Cl)cc3)C(O)(c3cc(F)c(Cl)cc3Cl)C2)cc1 (centres undefined)	inactive
CN(C)CCNCCCNc1c2ccccc2nc2cccc([N+](=O)[O-])c12	active

Now look at this one.
IN: Recorded test call requested for "BrCC[N+]12CC[N+](CCBr)(CC1)C2"
OUT: inactive

====

Can you tell me GI50 for the items I'm about to list?
Test system: IGROV-1
Test: NCI tumour cell line growth inhibition, 48 h
The source made the active and inactive calls. Cut-off read from the data, not from the text of the source: active = GI50 up to about 1.1 µM and inactive = higher.

Please supply GI50 for each of the following items, keeping them in order.
1. CC(=O)O[C@H]1CC[C@@H](OC(C)=O)[C@H]2[C@H](O)[C@H](O)[C@@H]1n1c(=O)n(-c3ccccc3)c(=O)n12
2. CCN(CC)C(=O)Cn1c2c(c3ccccc31)CCCC2
3. COc1ccc(/C=C2/CSC/C(=C/c3ccc(OC)c(OC)c3)C2=O)cc1OC
4. O=C1N=C(Nc2ccccc2Cl)SC1C(=O)Nc1ccc([N+](=O)[O-])cc1[N+](=O)[O-] (stereo not given)

OUT:
1. > 100 µM (inactive)
2. > 100 µM (inactive)
3. 2.28 µM (inactive)
4. > 100 µM (inactive)
